# study.system: Neuropeptide Y receptor type 2 (Homo sapiens, UniProt P49146)
# Sequence (P49146 whole entry): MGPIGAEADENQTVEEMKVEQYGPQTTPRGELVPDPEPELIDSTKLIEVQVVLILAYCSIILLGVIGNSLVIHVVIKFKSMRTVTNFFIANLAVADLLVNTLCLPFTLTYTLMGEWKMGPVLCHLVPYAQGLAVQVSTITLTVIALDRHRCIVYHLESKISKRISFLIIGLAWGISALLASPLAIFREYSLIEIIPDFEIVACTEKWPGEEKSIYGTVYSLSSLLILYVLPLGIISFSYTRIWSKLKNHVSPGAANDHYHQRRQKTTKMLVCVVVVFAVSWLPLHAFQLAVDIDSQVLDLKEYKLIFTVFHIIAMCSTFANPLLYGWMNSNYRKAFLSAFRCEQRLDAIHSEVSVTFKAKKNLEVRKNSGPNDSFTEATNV
# experiment.summary: Displacement of [3H]propionyl-pNPY from human Y2R expressed in CHO cells
# Assay type: cell-based
# condition.notes: read-out: pKi (converted)
Starred links: 1 amine or outer side, 2 acyl side, 3 side chain; linkers in the order of their positions; H or OH if unused. Positions of bridges follow the written chain, without caps; N, C: chain ends. Non-standard residues stand in square brackets, D forms with d. Residues, ends and D or L forms follow the SMILES beside them. *: point of attachment. Arg(Nω-CO) = N/C(=N\C(=O)[*:3])NCCC[C@H](N[*:1])C(=O)[*:2]; Ethylenediamine = C(CN[*:2])N[*:1]; Propionyl = CCC(=O)*
Kindly state Ki for each of the entries shown.

Prompt: Requested read-out: Ki. Entry: CC(C)C[C@H](NC(=O)[C@@H]1CCCN/C(N)=N/C(=O)NCCCCNC(=O)[C@H](NC(=O)CCCN)CC(=O)N[C@@H](CCCNC(=N)N)C(=O)N[C@@H](Cc2ccc(O)cc2)C(=O)N1)C(=O)N[C@@H](CCCNC(=N)N)C(=O)N[C@@H](Cc1ccc(O)cc1)C(N)=O
Response: 912 nM

Prompt: Would you mind telling me what Ki value was observed for CCC(=O)N[C@H]1CCC(=O)NCCNC(=O)/N=C(\N)NCCC[C@@H](C(=O)N[C@@H](CC(C)C)C(=O)N[C@@H](CCCNC(=N)N)C(=O)N[C@@H](Cc2ccc(O)cc2)C(N)=O)NC(=O)[C@H](Cc2ccc(O)cc2)NC(=O)[C@H](CCCNC(=N)N)NC1=O (Propionyl-ERY[Arg(Nω-CO)]LRY-NH2; linker 1-4 via Ethylenediamine) ?
Response: > 3160 nM

Prompt: Item under review: CCC(=O)NCCCC(=O)N[C@@H]1CC(=O)N[C@@H](CCCNC(=N)N)C(=O)N[C@@H](Cc2ccc(O)cc2)C(=O)N[C@H](C(=O)N[C@@H](CC(C)C)C(=O)N[C@@H](CCCNC(=N)N)C(=O)N[C@@H](Cc2ccc(O)cc2)C(N)=O)CCCN/C(N)=N/C(=O)NCCCCNC1=O.O=C(O)C(F)(F)F.O=C(O)C(F)(F)F.O=C(O)C(F)(F)F . Reported Ki?
Response: > 3160 nM
